# System: BDF1 mice, P388 leukemia ip, median survival T/C
# Assay procedure: NCI In Vivo Anticancer Drug Screen. Data for tumor model P388 Leukemia (intraperitoneal) in B6D2F1 (BDF1) mice
# Condition summary: endpoint: median survival time; dose: 6.25 mg/kg/injection; schedule: Q04DX003 (ip); vehicle: saline; higher = longer survival
Inconclusive results and toxic doses are left out.
Endpoint label: T/C

Example entries begin here.
{"Compound": "CCN1c2ccccc2C(Cl)(c2ccc(N(C)C)cc2)c2ccccc21", "Endpoint label": "T/C", "Result": "100 % of control"}
{"Compound": "CNc1n[n+](-c2ccccc2)no1", "Endpoint label": "T/C", "Result": "102 % of control"}
{"Compound": "CC(CN(C)C)CN1c2ccccc2Sc2ccccc21 (stereo unspecified)", "Endpoint label": "T/C", "Result": "100 % of control"}
{"Compound": "COc1cc2ccncc2cc1OCc1ccccc1", "Endpoint label": "T/C", "Result": "100 % of control"}
{"Compound": "C[N+](C)(CC(=O)Nc1ccc(Cl)c(Cl)c1)CC(=O)c1ccc(Cl)cc1", "Endpoint label": "T/C", "Result": "110 % of control"}

Read the next record carefully.
Task: Fill in reported T/C for this entry: COc1cc2ccc3c(c2cc1OC)C=NCC3
Result: 104 % of control

----------
# Tested on: BDF1 mice, P388 leukemia ip, median survival T/C
# Assay procedure: NCI In Vivo Anticancer Drug Screen. Data for tumor model P388 Leukemia (intraperitoneal) in B6D2F1 (BDF1) mice
# Condition summary: endpoint: median survival time; dose: 100.0 mg/kg/injection; schedule: Q04DX003 (ip); vehicle: saline; higher = longer survival
Toxic doses and inconclusive results are not listed.
Items are presented alongside their recorded T/C.

Examples from the recorded data:
{"Molecule": "CC(C)(C)OC(=O)CNC(=O)CCl", "T/C": "100 % of control"}
{"Molecule": "CCCCCCCCCCCC1CCCC(C)N1 (configuration not stated)", "T/C": "100 % of control"}
{"Molecule": "O=C(O)CCC(=O)c1ccc(C2CCCCCC2)cc1", "T/C": "95 % of control"}
{"Molecule": "Cc1c(N)ncc2ccccc12", "T/C": "118 % of control"}
{"Molecule": "COc1ccc(C[C@@H]2NC[C@@H](O)[C@@H]2OC(C)=O)cc1", "T/C": "111 % of control"}

Task: Specify T/C for NNC(=O)c1ccccn1 and stop.
Result: 88 % of control

Task: Give T/C for CN(C)[C@@H]1C(=O)C(C(=O)NCNC(CO)(CO)CO)=C(O)[C@@]2(O)C(=O)C3=C(O)c4c(O)cccc4[C@@](C)(O)[C@H]3C[C@@H]12
Result: 90 % of control

----------
# Tested on: BDF1 mice, P388 leukemia ip, median survival T/C
# Assay procedure: NCI In Vivo Anticancer Drug Screen. Data for tumor model P388 Leukemia (intraperitoneal) in B6D2F1 (BDF1) mice
# Condition summary: endpoint: median survival time; dose: 1.56 mg/kg/injection; schedule: Q01DX009 (ip); vehicle: saline with Tween-80; higher = longer survival
Inconclusive results and toxic doses are left out.
Reported T/C values are given for each entry in this list.

Example entries begin here.
{"Molecule": "CNc1ncnc2nc(OC)[nH]c12", "T/C": "100 % of control"}
{"Molecule": "O=C1OC(O)C(Cl)=C1Cl (stereo unspecified)", "T/C": "101 % of control"}
{"Molecule": "C#CCOc1ccccc1/C(Cl)=N/Nc1ccc([N+](=O)[O-])cc1[N+](=O)[O-]", "T/C": "106 % of control"}
{"Molecule": "CC12CCC(c3sc(N)c(C#N)c31)C2(C)C (stereo unspecified)", "T/C": "88 % of control"}

Task: Dear colleague, please send me the reported T/C for CSC(=S)NN=C1CCCCC1 when you can.
Result: 105 % of control

Task: Kindly indicate its recorded T/C. Item: C/C(=N\NC(=S)N(C)C)c1ccccn1
Result: 105 % of control

Attribution: PubChem BioAssay AID328
